Test system: colorectal carcinoma (HT-29) cells
Measurement description: Antiproliferative MTT assay, HT-29
Format: cell-based, human
Cond: Homo sapiens, HT-29, 72 h, 72 h incubation, MTT; mean ± SD
Property name: IC50 (µM)

compound="OCC(c1ccc(C(F)(F)F)cc1)n1cc(Cn2cnc3ccccc32)nn1 (stereo not drawn) [Compound 35a]" property_name=IC50 readout_number=61
compound="OC(Cn1cc(Cn2cnc3c(Cl)ncnc32)nn1)c1ccccc1 (stereo not drawn) [Compound 36b]" property_name=IC50 readout_number=61
compound="OCC(c1ccccc1)n1cc(Cn2cnc3c(Cl)ncnc32)nn1 (stereo not drawn) [Compound 36a]" property_name=IC50 readout_number=54
